procedure-details: ACEA_ER_AUC_viability: ACEA Biosciences xCELLigence Real-Time Cell Analysis on Estrogen Receptor Agonism for Viability (AID 2283782);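 also: continuous compound exposure with impedance area under curve over 80 h; hit means loss of impedance signal meaning reduced cell growth or viability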
Results filed as inconclusive are left out. Active and inactive are the calls of the source. The calls were made as follows: active = hit-call score of the fitted dose curve at least 0.9, where 1 is the maximum; inconclusive = response in the unintended direction; inactive = score below 0.9.
observed-property: AC50

Consider the following illustrative entries.
compound | measured-result
COc1c(Cl)ccc(Cl)c1C(=O)O | inactive
CCOC(=O)COc1cc(-n2ncc(C(F)(F)F)c(C)c2=O)c(F)cc1Cl | inactive
COC(=O)CSc1cc(N=c2sc(=O)n3n2CCCC3)c(F)cc1Cl | inactive
C=CCOC(Cn1ccnc1)c1ccc(Cl)cc1Cl (configuration not stated) | 50 µM (active)
Oc1ccc(C(c2ccc(O)cc2)C(Cl)(Cl)Cl)cc1 | 83.7 µM (active)
O=C(O)C1(C(=O)Nc2ccc(Cl)cc2Cl)CC1 | inactive

Next item in the queue.
Query: Consider the compound `CCOC(=O)NCCOc1ccc(Oc2ccccc2)cc1` and give its measured AC50.
Reply: 95.3 µM (active)
